Origin of the recorded values: paper PMC5003403

- Assay type: in vivo
- Conditions used: human, plasma, oral, 25 mg
Readout label: Cmax (ng/mL)
Report as a plain number; the unit ng/mL is understood.

# get_value(readout='Cmax', item= C=C1C[C@@H]2[C@H](CC[C@]3(C)C(=O)CC[C@@H]23)[C@@]2(C)C=CC(=O)C=C12 [Exemestane] )
20.1
